- System: Malme-3M
- Assay Procedure: NCI tumour cell line growth inhibition, 48 h
Activity calls are given as the source filed them. Cut-off read from the data, not from the text of the source: active = GI50 up to about 1.1 µM and inactive = higher.
Parameter GI50: see the listing below.

Some compounds with recorded GI50:
COC1OC(COC(=O)c2cc(O)c(O)c(O)c2)C(OC(=O)c2cc(O)c(O)c(O)c2)C(OC(=O)c2cc(O)c(O)c(O)c2)C1OC(=O)c1cc(O)c(O)c(O)c1 (stereo not given) ... 27.9 µM (inactive)
N#CC12C(=O)N3C(=NC(c4ccco4)NC3c3ccco3)C1(C#N)C(c1ccco1)NC1=C2CCCC1 (stereo not given) ... > 100 µM (inactive)
O=C1C=C(Br)C(=O)C12CCc1ccccc12 (stereo not given) ... 14.6 µM (inactive)
O=C(/N=N/c1cc(Cl)ccc1Cl)NNc1cc(Cl)ccc1Cl ... 23.1 µM (inactive)

Data point: O=C(c1ccc(Cl)cc1)c1ccc(OCCCOc2ccc(C(=O)c3ccc(Cl)cc3)cc2Cl)c(Cl)c1 ; GI50 = > 100 µM (inactive)
